# assay target: EGFR (mouse) (UniProt P00533)
# assay context: 3t3
recorded endpoint: IC50 (µM)

sample_smiles=O=C1Nc2ccccc2/C1=C/c1ccc(-n2cccc2)cc1 readout_value=17

====

# IC50 annotations
# assay target: EGFR (UniProt P00533)
# Sequence (P00533 whole entry, looked up): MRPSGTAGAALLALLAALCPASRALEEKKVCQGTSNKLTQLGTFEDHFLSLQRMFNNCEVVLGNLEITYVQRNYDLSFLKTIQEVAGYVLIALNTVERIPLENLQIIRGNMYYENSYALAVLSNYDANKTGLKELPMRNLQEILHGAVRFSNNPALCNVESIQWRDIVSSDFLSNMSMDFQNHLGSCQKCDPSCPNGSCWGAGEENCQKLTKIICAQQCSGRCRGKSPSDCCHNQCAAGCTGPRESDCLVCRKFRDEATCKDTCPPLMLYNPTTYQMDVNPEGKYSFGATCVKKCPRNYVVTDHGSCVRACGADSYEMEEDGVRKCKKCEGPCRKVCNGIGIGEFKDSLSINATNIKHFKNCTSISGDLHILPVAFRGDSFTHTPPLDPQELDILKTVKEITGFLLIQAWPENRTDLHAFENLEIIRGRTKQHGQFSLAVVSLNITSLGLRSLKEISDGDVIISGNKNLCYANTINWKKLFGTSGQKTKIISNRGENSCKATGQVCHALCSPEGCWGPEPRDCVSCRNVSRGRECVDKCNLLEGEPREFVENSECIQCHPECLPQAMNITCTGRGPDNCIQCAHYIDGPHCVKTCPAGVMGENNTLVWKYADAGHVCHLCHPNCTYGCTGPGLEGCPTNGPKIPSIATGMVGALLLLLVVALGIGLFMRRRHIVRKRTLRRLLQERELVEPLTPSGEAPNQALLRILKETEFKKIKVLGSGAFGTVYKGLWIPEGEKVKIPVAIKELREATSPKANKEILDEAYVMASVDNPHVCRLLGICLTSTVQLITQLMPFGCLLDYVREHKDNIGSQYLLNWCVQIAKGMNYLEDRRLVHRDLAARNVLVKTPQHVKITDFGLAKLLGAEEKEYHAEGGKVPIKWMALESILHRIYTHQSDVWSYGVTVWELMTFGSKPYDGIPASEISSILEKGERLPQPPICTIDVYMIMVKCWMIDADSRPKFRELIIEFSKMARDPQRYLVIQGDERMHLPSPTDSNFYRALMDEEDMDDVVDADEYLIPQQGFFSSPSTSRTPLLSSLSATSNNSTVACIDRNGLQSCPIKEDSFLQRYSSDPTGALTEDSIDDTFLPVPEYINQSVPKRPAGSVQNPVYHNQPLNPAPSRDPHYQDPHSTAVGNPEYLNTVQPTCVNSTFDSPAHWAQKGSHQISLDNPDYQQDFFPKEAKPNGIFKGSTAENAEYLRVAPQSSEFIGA
recorded endpoint: IC50 (nM)

sample_smiles=CN(C(=O)NCCCl)c1ccc2ncnc(Nc3cccc(Br)c3)c2c1 assay_target="EGFR (UniProt P00533)" readout_value=156
sample_smiles=Cc1cccc(Nc2ncnc3ccc(N(C)C(=O)NCCCl)cc23)c1 assay_target="EGFR (UniProt P00533)" readout_value=1690
sample_smiles=CN(C(=O)NCCCl)c1ccc2ncnc(Nc3cccc(Cl)c3)c2c1 assay_target="EGFR (UniProt P00533)" readout_value=81
sample_smiles=Cc1cccc(Nc2ncnc3ccc(N)cc23)c1 assay_target="EGFR (UniProt P00533)" readout_value=1000
